- test target: 26S proteasome non-ATPase regulatory subunit 14 (Homo sapiens)
- Sequence (O00487 whole entry): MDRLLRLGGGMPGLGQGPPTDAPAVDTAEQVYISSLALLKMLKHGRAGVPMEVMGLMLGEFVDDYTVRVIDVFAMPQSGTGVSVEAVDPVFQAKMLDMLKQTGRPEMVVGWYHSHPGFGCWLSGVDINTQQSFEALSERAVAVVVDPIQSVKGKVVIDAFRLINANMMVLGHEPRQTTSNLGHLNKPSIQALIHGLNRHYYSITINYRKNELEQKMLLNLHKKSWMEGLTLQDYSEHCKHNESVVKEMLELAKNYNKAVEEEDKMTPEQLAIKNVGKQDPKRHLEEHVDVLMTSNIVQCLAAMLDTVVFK
- method description: inhibition of proteasome subunit RPN11 – biochemical, fluorescence polarization, uHTS hits, confirmation (AID 602368)
- Assay type: functional
Activity calls are given as the source filed them. How the calls were made is not given here.
endpoint label: IC50

{"record smiles": "C/N=c1\\scc(-c2cc(OC)ccc2OC)n1/N=C/c1c(C)[nH]c2ccccc12", "recorded measurement": "23.8 µM (active)"}
{"record smiles": "Cc1ccsc1/C=N/n1c(S)nnc1-c1cc(-c2ccccc2)[nH]n1", "recorded measurement": "21.1 µM (active)"}
{"record smiles": "C=CCn1cc(/C=N/NC(=O)COc2cccc3cccnc23)c2ccccc21", "recorded measurement": "27.8 µM (active)"}
{"record smiles": "COc1ccc(Cl)cc1C(=O)Nc1cccc(-c2ccc3nncn3n2)c1", "recorded measurement": "12 µM (active)"}
